Target: HLA-C*06:02
Test: IEDB peptide-MHC binding, purified MHC/direct/fluorescence; filed as Kd, often an IC50 or EC50 that approximates it; bounds were set here for any values at or beyond the usual limits of such assays
Details: source organism: Bacillus cereus G9241
measure: pKd
pKd is defined as minus the log10 of a concentration measured in mol/L.

Reported pKd ( `FVHDSVQYF` ) = 6.88

----------
Molecular target: HLA-A*02:03
Assay: IEDB peptide-MHC binding, purified MHC/competitive/radioactivity; filed as Kd, often an IC50 or EC50 that approximates it; bounds were set here for any values at or beyond the usual limits of such assays
Conditions: source organism: Dengue virus 4 Dominica/814669/1981
measure: Kd (nM)
Please give a number only; it is taken to be in nM.

// field: Kd; key: `GLFTSLGKA` ; value = 10.8

----------
Molecular target: HLA-A*26:01
Test: IEDB peptide-MHC binding, purified MHC/competitive/radioactivity; filed as Kd, often an IC50 or EC50 that approximates it; bounds were set here for any values at or beyond the usual limits of such assays
Settings: source organism: Dengue virus 1 Brazil/97-11/1997
measure: Kd
Record the result as a number with its unit.

Use the examples below as a reference point.
Documented Kd of `VTAKWLWGF` : 12800 nM

Notebook: `EVEDYGFGIF` , Kd read as 1610 nM

// Kd lookup, sequence = `GVVTTSGTY` , result: 403 nM

Alright, here's another sequence for you.
Note to self: Kd recorded for `SVVETLEQM` was 138 nM

----------
Molecular target: HLA-B*18:01
Test: IEDB peptide-MHC binding, purified MHC/competitive/fluorescence; filed as Kd, often an IC50 or EC50 that approximates it; bounds were set here for any values at or beyond the usual limits of such assays
Details: source organism: Giardia lamblia ATCC 50803
pKd: −log10 of the molar value.
measure: pKd

The value of pKd measured for the sequence `ALGGSCHTT` turned out to be ≤ 4.70

----------
Target: HLA-A*69:01
Assay: IEDB peptide-MHC binding, purified MHC/direct/fluorescence; filed as Kd, often an IC50 or EC50 that approximates it; bounds were set here for any values at or beyond the usual limits of such assays
Conditions: source organism: Francisella tularensis subsp. holarctica OSU18
measure: pKd
Please note pKd is a logarithmic value: minus log10 of concentration in mol/L. Answer with that number alone.

Just so you know, measured pKd for `ETLDVFGPI` came out at 9.40

----------
Molecular target: HLA-A*02:01
Experiment: IEDB peptide-MHC binding, purified MHC/direct/fluorescence; filed as Kd, often an IC50 or EC50 that approximates it; bounds were set here for any values at or beyond the usual limits of such assays
Details: source organism: Mycobacterium tuberculosis str. Haarlem
pKd: −log10 of the molar value.
measure: pKd

Data point: `RLGWRTLDF` ; pKd = ≤ 4.70

----------
Molecular target: HLA-A*69:01
Test: IEDB peptide-MHC binding, purified MHC/direct/fluorescence; filed as Kd, often an IC50 or EC50 that approximates it; bounds were set here for any values at or beyond the usual limits of such assays
Details: source organism: Salmonella enterica subsp. enterica serovar Typhi
measure: Kd

Noted for `PSEDEQQGH` : its Kd reads ≥ 20 µM

----------
Target: HLA-B*18:01
Test: IEDB peptide-MHC binding, purified MHC/competitive/fluorescence; filed as Kd, often an IC50 or EC50 that approximates it; bounds were set here for any values at or beyond the usual limits of such assays
Conditions: source organism: Salmonella enterica subsp. enterica serovar Typhimurium str. LT2
measure: Kd

// `ILNSDDEQA` : Kd value = ≥ 20 µM

----------
Target: HLA-B*15:17
Experiment: IEDB peptide-MHC binding, purified MHC/direct/fluorescence; filed as Kd, often an IC50 or EC50 that approximates it; bounds were set here for any values at or beyond the usual limits of such assays
Settings: source organism: Camelpox virus CMS
measure: Kd

Entry under test: `MPAYIRNTL` . Its Kd was ≥ 20 µM

----------
Target: HLA-A*30:01
Experiment: IEDB peptide-MHC binding, purified MHC/direct/fluorescence; filed as Kd, often an IC50 or EC50 that approximates it; bounds were set here for any values at or beyond the usual limits of such assays
Details: source organism: Corynebacterium glutamicum
measure: Kd (nM)
Give the value, in units of nM, as a plain number.

// `ATQPVHWFL` : Kd value = 31.7

----------
Molecular target: HLA-A*69:01
Experiment: IEDB peptide-MHC binding, purified MHC/direct/fluorescence; filed as Kd, often an IC50 or EC50 that approximates it; bounds were set here for any values at or beyond the usual limits of such assays
Conditions: source organism: Vibrio cholerae
Items are presented alongside their recorded Kd.
Unit nM implied. Number only.

Value of measured Kd for the entry `IAFCNWAFV` : 60

Next:
Reported Kd ( `TTILGLLPM` ) = 1.6

----------
Molecular target: HLA-B*58:01
Test: IEDB peptide-MHC binding, purified MHC/direct/fluorescence; filed as Kd, often an IC50 or EC50 that approximates it; bounds were set here for any values at or beyond the usual limits of such assays
Settings: source organism: Influenza A virus (A/tiger/Thailand/CU-T4/04(H5N1))
measure: Kd

Note to self: Kd of `FVRTLFQQM` with HLA-B*58:01 was ≥ 20 µM

----------
Target: HLA-A*02:01
Assay: IEDB peptide-MHC binding, purified MHC/competitive/fluorescence; filed as Kd, often an IC50 or EC50 that approximates it; bounds were set here for any values at or beyond the usual limits of such assays
Conditions: source organism: Yersinia pestis Nepal516
measure: Kd (nM)
All answers are understood in nM, so give the number only.

Value of measured Kd for the entry `RAMRMVYYL` : 0.8

----------
Target: HLA-A*69:01
Assay: IEDB peptide-MHC binding, purified MHC/direct/fluorescence; filed as Kd, often an IC50 or EC50 that approximates it; bounds were set here for any values at or beyond the usual limits of such assays
Details: source organism: Camelpox virus CMS
measure: Kd

The sequence listed as `MPAYIRNTL` shows Kd equal to ≤ 1 nM

----------
Biological target: HLA-B*40:01
Experiment: IEDB peptide-MHC binding, purified MHC/direct/fluorescence; filed as Kd, often an IC50 or EC50 that approximates it; bounds were set here for any values at or beyond the usual limits of such assays
Conditions: source organism: Yellow fever virus 17D
pKd: −log10 of the molar value.
measure: pKd

// `VRGGMVAPL` : pKd value = ≤ 4.70

----------
Target: HLA-B*57:01
Assay: IEDB peptide-MHC binding, purified MHC/direct/fluorescence; filed as Kd, often an IC50 or EC50 that approximates it; bounds were set here for any values at or beyond the usual limits of such assays
Settings: source organism: Yellow fever virus
measure: Kd

// recorded Kd for `SSARYDVAL` : ≥ 20 µM

----------
Target: HLA-A*02:02
Assay: IEDB peptide-MHC binding, purified MHC/competitive/radioactivity; filed as Kd, often an IC50 or EC50 that approximates it; bounds were set here for any values at or beyond the usual limits of such assays
Settings: source organism: Lassa virus Josiah
measure: Kd (nM)
Kindly provide the numeric value in nM only, without the unit symbol.

The sequence listed as `RLLGTFTWT` shows Kd equal to 323

More entries:
The sequence identified as `FSTSFYLISI` registered its Kd at 2.13

----------
The following sequences are listed with their measured pKd values.
Target: HLA-A*32:01
Experiment: IEDB peptide-MHC binding, purified MHC/competitive/radioactivity; filed as Kd, often an IC50 or EC50 that approximates it; bounds were set here for any values at or beyond the usual limits of such assays
Conditions: source organism: Dengue virus 1 Brazil/97-11/1997
Friendly reminder that pKd comes from taking -log10 of the concentration in mol/L.

Illustrative cases are given below, each with its answer.
I looked up `IMAIGIVSI` and its pKd for HLA-A*32:01 was 7.11

Entry `DEDHAHWTEA` under HLA-A*32:01 had pKd of 6.41

The sequence `AGILARWSSF` , when measured on HLA-A*32:01, yielded pKd of 5.55

Lab note: sequence `KTFDTEYQK` tested on HLA-A*32:01; recorded pKd was 5.11

In the following, a different sequence is considered.
The sequence `KTHVSSWEEV` on HLA-A*32:01: pKd was 5.17

----------
Target: HLA-A*30:02
Assay: IEDB peptide-MHC binding, purified MHC/competitive/radioactivity; filed as Kd, often an IC50 or EC50 that approximates it; bounds were set here for any values at or beyond the usual limits of such assays
Settings: source organism: Dengue virus 3 Martinique/1243/1999
Each record here notes measured Kd.
Please reply with the bare figure in µM and do not write the unit itself.

Measured Kd of `VHQIFGSAY` : 9.95

Consider the additional sequence presented here.
Entry under test: `ISKIPGGAMY` . Its Kd was 0.00935

----------
Target: HLA-B*15:01
Experiment: IEDB peptide-MHC binding, purified MHC/competitive/radioactivity; filed as Kd, often an IC50 or EC50 that approximates it; bounds were set here for any values at or beyond the usual limits of such assays
Conditions: source organism: Vaccinia virus WR
measure: Kd
Write down the value, and be sure its unit follows.

Examples with their reported Kd follow.
So the reported Kd for `MLRVYNNTA` , on HLA-B*15:01, turned out to be 188 nM

Note to self: Kd of `KTLKYSNKI` with HLA-B*15:01 was 123 nM

# `MSIVCIVAA` with HLA-B*15:01: Kd is 3070 nM

Others:
HLA-B*15:01 data for `LLFILFYFA` ; its Kd: 242 nM

Case `LQIFSNSVG` , HLA-B*15:01, Kd recorded as 2.07 nM
